system: SK-MES-1; experiment: relative viability (nuclei count vs DMSO), 5 days (fraction); higher = more cells survive; details: first compound 0.01 µM
Output rule met for records whose relative viability is lower than 0.9, rule not met for records at or above 0.9.

NC(=O)Nc1cc(-c2cccc(F)c2)sc1C(=O)N[C@H]1CCCNC1 [AZD7762] + Nc1ncn([C@H]2C[C@H](O)[C@@H](CO)O2)c(=O)n1 [Decitabine] (partner 2 µM) : rule met

Does NC(=O)Nc1cc(-c2cccc(F)c2)sc1C(=O)N[C@H]1CCCNC1 [AZD7762] + O=C(CCCCCCC(=O)Nc1ccccc1)NO [Vorinostat] (partner 1 µM) have relative viability strictly under 0.9?
rule not met

Try this compound next: NC(=O)Nc1cc(-c2cccc(F)c2)sc1C(=O)N[C@H]1CCCNC1 [AZD7762] + N=C(N)NC(=N)NCCc1ccccc1 [Phenformin] (partner 250 µM)
rule met

Next: NC(=O)Nc1cc(-c2cccc(F)c2)sc1C(=O)N[C@H]1CCCNC1 [AZD7762] + Cc1cc(Nc2cc(N3CCN(C)CC3)nc(Sc3ccc(NC(=O)C4CC4)cc3)n2)n[nH]1 [Tozasertib] (partner 0.1 µM)
rule not met

One more compound: NC(=O)Nc1cc(-c2cccc(F)c2)sc1C(=O)N[C@H]1CCCNC1 [AZD7762] + CCNC(=O)c1noc(-c2cc(C(C)C)c(O)cc2O)c1-c1ccc(CN2CCOCC2)cc1 [Luminespib] (partner 0.01 µM)
rule not met
